# assay-details: Dissociation constant, pKa of the compound in aqueous solution
# Type: physicochemical
Quick list: pKa per entry.
endpoint-name: pKa

smiles-code: O=c1ccn([C@H]2CC[C@@H](COP(=O)(O)Nc3ccncc3)O2)c(=O)[nH]1
endpoint-name: pKa
value-operator: <
reported-measurement: 8
//
smiles-code: Cc1cn([C@H]2C[C@H](N=[N+]=[N-])[C@@H](COP(=O)(O)Nc3ccncc3)O2)c(=O)[nH]c1=O
endpoint-name: pKa
value-operator: <
reported-measurement: 8
//
smiles-code: Nc1cccnc1
endpoint-name: pKa
value-operator: =
reported-measurement: 6.03
//
smiles-code: Nc1ccncc1
endpoint-name: pKa
value-operator: =
reported-measurement: 9.13
//
smiles-code: COc1ccc(N)cc1
endpoint-name: pKa
value-operator: =
reported-measurement: 4.58
//
smiles-code: Nc1ccc(Cl)cc1
endpoint-name: pKa
value-operator: =
reported-measurement: 3.99

* * *

# System: Human immunodeficiency virus 1
# assay-details: Antiviral activity against HIV1 infected in human CEM-T4 cells assessed as reduction in viral protein p24 production preincubated for 24 hrs measured after 8 days by MTT assay
# Assay type: functional, organism-based
# test-conditions: Human immunodeficiency virus 1, CEM-T4
pEC50: −log10 of the molar value.

compound: Cc1cn([C@H]2C[C@H](N=[N+]=[N-])[C@@H](CO)O2)c(=O)[nH]c1=O
value-operator: >
pEC50: 8.70
--
compound: Cc1cn([C@H]2C[C@H](N=[N+]=[N-])[C@@H](COP(=O)(O)Nc3cccnc3)O2)c(=O)[nH]c1=O
value-operator: =
pEC50: 8.64
--
compound: O=c1ccn([C@H]2CC[C@@H](COP(=O)(O)Nc3cccnc3)O2)c(=O)[nH]1
value-operator: <
pEC50: 5.00
--
compound: O=c1ccn([C@H]2CC[C@@H](COP(=O)(O)Nc3ccncc3)O2)c(=O)[nH]1
value-operator: =
pEC50: 6.70
--
compound: CCN(CC)CC.Cc1cn([C@H]2C[C@H](N=[N+]=[N-])[C@@H](COP(=O)(O)Nc3ccc(Cl)cc3)O2)c(=O)[nH]c1=O
value-operator: =
pEC50: 7.70
--
compound: Nc1ccncc1
value-operator: <
pEC50: 4.70
--
compound: CCN(CC)CC.Cc1cn([C@H]2C[C@H](N=[N+]=[N-])[C@@H](COP(=O)(O)Nc3ccccc3)O2)c(=O)[nH]c1=O
value-operator: =
pEC50: 6.22
--
compound: Nc1cccnc1
value-operator: <
pEC50: 4.70
--
compound: Nc1ccccn1
value-operator: <
pEC50: 4.70
--
compound: Cc1cn([C@H]2C[C@H](N=[N+]=[N-])[C@@H](COP(=O)(O)Nc3ccncc3)O2)c(=O)[nH]c1=O
value-operator: =
pEC50: 8.96
--
compound: Cc1cn([C@H]2C[C@H](N=[N+]=[N-])[C@@H](COP(=O)(O)O)O2)c(=O)[nH]c1=O [AZIDOTHYMIDINE MONOPHOSPHATE]
value-operator: =
pEC50: 8.00

* * *

# assay-details: Selectivity index, ratio of CC50 for human CEM-T4 cells to EC50 for HIV1 infected human CEM-T4 cells
# Assay type: toxicity, cell-based
# test-conditions: read-out: Ratio CC50/EC50
Quick list: selectivity ratio per entry.

molecule: O=c1ccn([C@H]2CC[C@@H](COP(=O)(O)Nc3cccnc3)O2)c(=O)[nH]1
selectivity ratio: < 3

molecule: Cc1cn([C@H]2C[C@H](N=[N+]=[N-])[C@@H](CO)O2)c(=O)[nH]c1=O
selectivity ratio: > 100000

molecule: Cc1cn([C@H]2C[C@H](N=[N+]=[N-])[C@@H](COP(=O)(O)O)O2)c(=O)[nH]c1=O [AZIDOTHYMIDINE MONOPHOSPHATE]
selectivity ratio: 10000

molecule: Nc1ccccn1
selectivity ratio: < 10

molecule: CCN(CC)CC.Cc1cn([C@H]2C[C@H](N=[N+]=[N-])[C@@H](COP(=O)(O)Nc3ccccc3)O2)c(=O)[nH]c1=O
selectivity ratio: > 300

molecule: Nc1cccnc1
selectivity ratio: < 10

molecule: Cc1cn([C@H]2C[C@H](N=[N+]=[N-])[C@@H](COP(=O)(O)Nc3cccnc3)O2)c(=O)[nH]c1=O
selectivity ratio: > 87000

molecule: O=c1ccn([C@H]2CC[C@@H](COP(=O)(O)Nc3ccncc3)O2)c(=O)[nH]1
selectivity ratio: > 250

molecule: Cc1cn([C@H]2C[C@H](N=[N+]=[N-])[C@@H](COP(=O)(O)Nc3ccncc3)O2)c(=O)[nH]c1=O
selectivity ratio: > 182000

molecule: Nc1ccncc1
selectivity ratio: < 10

molecule: CCN(CC)CC.Cc1cn([C@H]2C[C@H](N=[N+]=[N-])[C@@H](COP(=O)(O)Nc3ccc(Cl)cc3)O2)c(=O)[nH]c1=O
selectivity ratio: 14500
